experiment summary: In vitro skin permeation, Franz diffusion cells
cond: saturated solution in PBS pH 7.4, n = 3
measurement name: JSS, steady-state flux (µg IBU cm^−2 h^−1)
Give bare numbers, in µg IBU cm^−2 h^−1.

Here are 6 compounds. What values of JSS, steady-state flux were reported for them?
1. CC(C)Cc1ccc(C(C)C(=O)O)cc1.CC(C)OC(=O)C[C@H](N)C(=O)OC(C)C [[L-Asp(OiPr)2][IBU]]
2. CC(C)Cc1ccc(C(C)C(=O)O)cc1.CC(C)Cc1ccc(C(C)C(=O)O)cc1.CC(C)OC(=O)[C@@H](N)CCCCN [[L-LysOiPr][IBU]2]
3. CC(C)Cc1ccc(C(C)C(=O)O)cc1.CC(C)OC(=O)[C@H](C)N [[L-AlaOiPr][IBU], L-alanine isopropyl ester ibuprofenate]
4. CC(C)Cc1ccc(C(C)C(=O)O)cc1.CC(C)OC(=O)[C@@H](N)CS [[L-CysOiPr][IBU], L-cysteine isopropyl ester ibuprofenate]
5. CC(C)Cc1ccc(C(C)C(=O)O)cc1.CC(C)OC(=O)[C@@H](N)[C@@H](C)O [[L-ThrOiPr][IBU], L-threonine isopropyl ester ibuprofenate]
6. CC(C)Cc1ccc(C(C)C(=O)O)cc1.CC(C)OC(=O)[C@@H](N)Cc1ccccc1 [[L-PheOiPr][IBU]]

Reply:
1. 55.063
2. 24.852
3. 44.510
4. 28.858
5. 59.631
6. 48.578

---

experiment summary: In vitro skin permeation, Franz diffusion cells
cond: n = 3
measurement name: LT, lag time (h)
Give bare numbers, in h.

Recorded LT, lag time, per entry:
Reported LT, lag time ( CC(C)Cc1ccc(C(C)C(=O)O)cc1.CC(C)OC(=O)[C@@H](N)[C@@H](C)O [[L-ThrOiPr][IBU], L-threonine isopropyl ester ibuprofenate] ) = 1.339

Reported LT, lag time ( CC(C)Cc1ccc(C(C)C(=O)O)cc1.CC[C@H](C)[C@H](N)C(=O)OC(C)C [[L-IleOiPr][IBU]] ) = 1.617

Reported LT, lag time ( CC(C)Cc1ccc(C(C)C(=O)O)cc1.CC(C)Cc1ccc(C(C)C(=O)O)cc1.CC(C)OC(=O)[C@@H](N)CCCCN [[L-LysOiPr][IBU]2] ) = 1.333

Here are 4 compounds. What values of LT, lag time were reported for them?
1. CC(C)Cc1ccc(C(C)C(=O)O)cc1.CC(C)OC(=O)[C@@H](N)CS [[L-CysOiPr][IBU], L-cysteine isopropyl ester ibuprofenate]
2. CC(C)Cc1ccc(C(C)C(=O)O)cc1.CC(C)OC(=O)[C@H](C)N [[L-AlaOiPr][IBU], L-alanine isopropyl ester ibuprofenate]
3. CC(C)Cc1ccc(C(C)C(=O)O)cc1 (racemic) [IBU, reference compound]
4. CC(C)Cc1ccc(C(C)C(=O)O)cc1.CC(C)OC(=O)C[C@H](N)C(=O)OC(C)C [[L-Asp(OiPr)2][IBU]]

Reply:
[1.873, 1.691, 1.399, 1.010]

---

experiment summary: In vitro skin permeation, Franz diffusion cells
cond: saturated solution in PBS pH 7.4, n = 3
Provide the recorded JSS, steady-state flux for the entries that follow.
Answers are plain numbers, in µg IBU cm^−2 h^−1.

Recorded JSS, steady-state flux, per entry:
Reported JSS, steady-state flux ( CC(C)Cc1ccc(C(C)C(=O)O)cc1 (racemic) [IBU, reference compound] ) = 3.017

Reported JSS, steady-state flux ( CC(C)Cc1ccc(C(C)C(=O)O)cc1.CC(C)OC(=O)[C@@H](N)C(C)C [[L-ValOiPr][IBU], L-valine isopropyl ester ibuprofenate] ) = 43.749

Reported JSS, steady-state flux ( CC(C)Cc1ccc(C(C)C(=O)O)cc1.CC(C)OC(=O)[C@@H](N)CCCCN [[L-LysOiPr][IBU], L-lysine isopropyl ester ibuprofenate] ) = 56.801

Then this compound:
Reported JSS, steady-state flux ( CC(C)C[C@H](N)C(=O)OC(C)C.CC(C)Cc1ccc(C(C)C(=O)O)cc1 [[L-LeuOiPr][IBU], L-leucine isopropyl ester ibuprofenate] ) = 38.502

---

experiment summary: n-octanol-water partition coefficient, shake flask method
cond: n-octanol/water
measurement name: logP at 3 h
One number for each entry.

Reported logP at 3 h ( CC(C)Cc1ccc(C(C)C(=O)O)cc1 (racemic) [IBU, reference compound] ) = 3.21

---

experiment summary: Thermal stability (TG/DTG): decomposition onset and maximum mass-loss rate temperature
Provide the recorded Tonset, the onset temperature of the thermal degradation for the entries that follow.
Numbers only, in °C.

Reported Tonset, the onset temperature of the thermal degradation ( CC(C)C[C@H](N)C(=O)OC(C)C.CC(C)Cc1ccc(C(C)C(=O)O)cc1 [[L-LeuOiPr][IBU], L-leucine isopropyl ester ibuprofenate] ) = 109.5

Reported Tonset, the onset temperature of the thermal degradation ( CC(C)Cc1ccc(C(C)C(=O)O)cc1.CC(C)OC(=O)[C@@H](N)CS [[L-CysOiPr][IBU], L-cysteine isopropyl ester ibuprofenate] ) = 190.2

Reported Tonset, the onset temperature of the thermal degradation ( CC(C)Cc1ccc(C(C)C(=O)O)cc1.CC(C)OC(=O)C[C@H](N)C(=O)OC(C)C [[L-Asp(OiPr)2][IBU]] ) = 141.7

More entries:
Reported Tonset, the onset temperature of the thermal degradation ( CC(C)Cc1ccc(C(C)C(=O)O)cc1.CC[C@H](C)[C@H](N)C(=O)OC(C)C [[L-IleOiPr][IBU]] ) = 105.2

---

experiment summary: In vitro skin permeation, Franz diffusion cells
cond: relative to IBU
// assign label 1 if EF, enhancement factor falls strictly below 2, else label 0 (ties count as label 0)

Known results for molecules:
Ask: Please determine if CC(C)Cc1ccc(C(C)C(=O)O)cc1.CC[C@H](C)[C@H](N)C(=O)OC(C)C [[L-IleOiPr][IBU]] is below 2 in terms of EF, enhancement factor.
Reply: label 1

Ask: Please determine if CC(C)Cc1ccc(C(C)C(=O)O)cc1.CC(C)OC(=O)[C@@H](N)CS [[L-CysOiPr][IBU], L-cysteine isopropyl ester ibuprofenate] is below 2 in terms of EF, enhancement factor.
Reply: label 1

Ask: Please determine if CC(C)Cc1ccc(C(C)C(=O)O)cc1.CC(C)OC(=O)[C@@H](N)C(C)C [[L-ValOiPr][IBU], L-valine isopropyl ester ibuprofenate] is below 2 in terms of EF, enhancement factor.
Reply: label 1

Ask: Please determine if CC(C)Cc1ccc(C(C)C(=O)O)cc1 (racemic) [IBU, reference compound] is below 2 in terms of EF, enhancement factor.
Reply: label 1

Ask: Please determine if CC(C)C[C@H](N)C(=O)OC(C)C.CC(C)Cc1ccc(C(C)C(=O)O)cc1 [[L-LeuOiPr][IBU], L-leucine isopropyl ester ibuprofenate] is below 2 in terms of EF, enhancement factor.
Reply: label 1

More entries:
Ask: Please determine if CC(C)Cc1ccc(C(C)C(=O)O)cc1.CC(C)OC(=O)C[C@H](N)C(=O)OC(C)C [[L-Asp(OiPr)2][IBU]] is below 2 in terms of EF, enhancement factor.
Reply: label 0

Ask: Please determine if CC(C)Cc1ccc(C(C)C(=O)O)cc1.CC(C)OC(=O)[C@H](C)N [[L-AlaOiPr][IBU], L-alanine isopropyl ester ibuprofenate] is below 2 in terms of EF, enhancement factor.
Reply: label 1

Ask: Please determine if CC(C)Cc1ccc(C(C)C(=O)O)cc1.CC(C)OC(=O)[C@@H](N)[C@@H](C)O [[L-ThrOiPr][IBU], L-threonine isopropyl ester ibuprofenate] is below 2 in terms of EF, enhancement factor.
Reply: label 1

Ask: Please determine if CC(C)Cc1ccc(C(C)C(=O)O)cc1.CC(C)Cc1ccc(C(C)C(=O)O)cc1.CC(C)OC(=O)[C@@H](N)CCCCN [[L-LysOiPr][IBU]2] is below 2 in terms of EF, enhancement factor.
Reply: label 1

Ask: Please determine if CC(C)Cc1ccc(C(C)C(=O)O)cc1.CC(C)OC(=O)[C@@H](N)Cc1ccccc1 [[L-PheOiPr][IBU]] is below 2 in terms of EF, enhancement factor.
Reply: label 0

Ask: Please determine if CC(C)Cc1ccc(C(C)C(=O)O)cc1.CC(C)OC(=O)[C@@H](N)CCCCN [[L-LysOiPr][IBU], L-lysine isopropyl ester ibuprofenate] is below 2 in terms of EF, enhancement factor.
Reply: label 1

Ask: Please determine if CC(C)Cc1ccc(C(C)C(=O)O)cc1.CC(C)OC(=O)[C@@H](N)CO [[L-SerOiPr][IBU], L-serine isopropyl ester ibuprofenate] is below 2 in terms of EF, enhancement factor.
Reply: label 1

---

Provide the recorded Solubility in Water for the entries that follow.
experiment summary: Solubility (saturation concentration) in deionised water and PBS pH 7.4, HPLC
cond: water, 25 °C; g of active compound (IBU)
Answers are plain numbers, in g IBU∙dm^−3.

Reported Solubility in Water ( CC(C)Cc1ccc(C(C)C(=O)O)cc1.CC(C)Cc1ccc(C(C)C(=O)O)cc1.CC(C)OC(=O)[C@@H](N)CCCCN [[L-LysOiPr][IBU]2] ) = 2.012

Here are 7 compounds. What values of Solubility in Water were reported for them?
1. CC(C)Cc1ccc(C(C)C(=O)O)cc1.CC(C)OC(=O)[C@H](C)N [[L-AlaOiPr][IBU], L-alanine isopropyl ester ibuprofenate]
2. CC(C)Cc1ccc(C(C)C(=O)O)cc1.CC(C)OC(=O)[C@@H](N)CS [[L-CysOiPr][IBU], L-cysteine isopropyl ester ibuprofenate]
3. CC(C)C[C@H](N)C(=O)OC(C)C.CC(C)Cc1ccc(C(C)C(=O)O)cc1 [[L-LeuOiPr][IBU], L-leucine isopropyl ester ibuprofenate]
4. CC(C)Cc1ccc(C(C)C(=O)O)cc1.CC(C)OC(=O)[C@@H](N)Cc1ccccc1 [[L-PheOiPr][IBU]]
5. CC(C)Cc1ccc(C(C)C(=O)O)cc1.CC[C@H](C)[C@H](N)C(=O)OC(C)C [[L-IleOiPr][IBU]]
6. CC(C)Cc1ccc(C(C)C(=O)O)cc1.CC(C)OC(=O)C[C@H](N)C(=O)OC(C)C [[L-Asp(OiPr)2][IBU]]
7. CC(C)Cc1ccc(C(C)C(=O)O)cc1.CC(C)OC(=O)[C@@H](N)CCCCN [[L-LysOiPr][IBU], L-lysine isopropyl ester ibuprofenate]

Reply:
1. 2.463
2. 1.143
3. 0.682
4. 0.297
5. 1.483
6. 1.159
7. 5.047
